# Test system: SF-268 CNS
# protocol: NCI-60 one-dose screen, 48 h (100 = growth as untreated, 0 = no growth, -100 = all killed)
# condition: 10 µM unless noted
This is part of a sample that, as a whole, favours compounds with a hit. Of some 83,000 tested, about 20% had one in any assay.
Lab note - cut at 70% for growth: 1 if strictly below, -1 if not.

(Q) Dear colleague, could you confirm whether growth of COc1ccc(C(=O)n2cc(C=O)c3ccccc32)cc1 falls below 70%? Thanks.
(A) -1

====

# System: RXF 393 renal
# protocol: NCI-60 one-dose screen, 48 h
# condition: 10 µM unless noted
# Experimental: Cells are grown in 96 well plates and exposed to the test compound for 48 hours. Compounds are tested at a single concentration, which is 10^-5 M for most compounds. The reported endpoint is percent growth (GI% or GIPRCNT), where numbers from 0 - 100% represent growth inhibition, and numbers from -100% - 0 represent cell death. For example, a value of 40 represents 60% growth inhibition. A value of 0 means no net growth occurred over the course of the experiment. […]
The panel holds about 83,000 compounds, 20% with a hit somewhere; the sample as a whole holds those more often. Activity calls are given as the source filed them. Rule for the calls: active = growth percent below 10; inactive = the rest.
Assign a class; possible classes are active, inactive

Cc1cc(=O)n2nc(-c3cn(C)c4ccc(Cl)cc34)sc2n1 | inactive
O=C(COc1ccc(C2SCC(=O)N2c2ccccc2)cc1)c1ccccc1 (stereo unspecified) | inactive
CC1(C)CC[C@]2(C(=O)O)CC[C@]3(C)C(=CCC4[C@@]5(C)C[C@@H](O)[C@@H]6OC(c7cccc([N+](=O)[O-])c7)OC[C@@]6(C)C5CC[C@]43C)C2C1 (stereo partly specified) | inactive
N#Cc1c(NC(=O)c2ccccc2C(F)(F)F)sc2c1CCC(=O)C2 | active
CC(C)(C)CC(C)(C)n1nnnc1C(Nc1ccccc1)c1cc2cccc3ccc4cccc1c4c32 (stereo unspecified) | inactive
COC1=C(c2ccccc2)C(=O)C(OC)=C(c2ccccc2)C1=O | inactive
COc1cc(C2CC(c3ccc(Nc4nc(NCCO)nc(Nc5ccc(Cl)cc5)n4)cc3)=Nc3c(N)nc(N)nc3N2)cc(OC)c1OC (stereo unspecified) | inactive
O=C(NNc1nc2cc(F)c(F)cc2n2cccc12)c1ncccn1 | inactive
COc1cc(CNC(=O)Cc2ccccc2[N+](=O)[O-])ccc1OCC(=O)NO | inactive
COc1ccc(-c2cc(-c3ccc(Cl)cc3)nc3nc(N)nn23)cc1 | inactive

(Q) I would be grateful if you could indicate the recorded call for COc1cc(C(=O)c2cc(C(C)=O)c3c4ccccc4ccn23)cc(OC)c1OC .
(A) inactive

(Q) Next molecule up: Cc1ccccc1/C=C/c1nn2c(-c3ccoc3C)nnc2s1
(A) inactive

(Q) Next molecule up: COc1ccc(OC)c(NC2=C(Cl)C(=O)C(C)=C(C)C2=O)c1
(A) inactive

(Q) Next molecule up: O=c1[nH]c(CNc2ccc(NCc3c(-c4ccccc4)no[n+]3[O-])cc2)nc2c1cnn2-c1ccccc1
(A) inactive

(Q) Next molecule up: CC(=O)NC(C)(C)C(=O)N[C@@H](C)C(=O)NC(C)(C)C(=O)N[C@@H](C)C(=O)NC(C)(C)C(=O)N[C@@H](C)C(=O)N[C@@H](CCC(N)=O)C(=O)NC(C)(C)C(=O)N[C@H](C(=O)NC(C)(C)C(=O)NCC(=O)N[C@@H](CC(C)C)C(=O)NC(C)(C)C(=O)N1CCC[C@H]1C(=O)N[C@H](C(=O)NC(C)(C)C(=O)NC(C)(C)C(=O)N[C@@H](CCC(N)=O)C(=O)N[C@@H](CCC(N)=O)C(=O)N[C@H](CO)CC1CCCCC1)C(C)C)C(C)C
(A) inactive

(Q) Next molecule up: CCOC(=O)Nc1ccc(-c2nc(-c3cccc(O)c3)c(-c3ccnc(Br)c3)[nH]2)cc1
(A) active

====

# Test system: NCI-H23 lung
# protocol: NCI-60 one-dose screen, 48 h
# condition: 10 µM unless noted
This is part of a sample that, as a whole, favours compounds with a hit. Of some 83,000 tested, about 20% had one in any assay. Active and inactive are the calls of the source. How the source made its calls: active means growth percent below 10; inactive means the rest.
Assign a class; possible classes are active, inactive

Consider the following illustrative entries.
CC[C@@](C)(NC(=O)C(C)(C)NC(=O)[C@@H](NC(=O)[C@@H]1CCCN1C(=O)C(C)(C)NC(=O)[C@H](CC(C)C)NC(=O)CNC(=O)C(C)(C)NC(=O)[C@@H](NC(=O)C(C)(C)NC(=O)[C@H](CCC(N)=O)NC(=O)[C@H](C)NC(=O)C(C)(C)NC(=O)[C@H](C)NC(=O)C(C)(C)NC(=O)[C@H](C)NC(=O)C(C)(C)NC(C)=O)C(C)C)C(C)C)C(=O)N[C@@H](CCC(N)=O)C(=O)N[C@@H](CCC(N)=O)C(=O)N[C@H](CO)CC1CCCCC1 | inactive
Cc1nn(-c2ccc(Br)cc2)c2nc(CCl)[nH]c(=O)c12 | inactive

Moving on to another molecule below.
(Q) I would be grateful if you could indicate the recorded call for C=C(C)C(=O)O[C@H]1C[C@@]2(C)OC(=CC2=O)/C(C)=C\[C@H]2OC(=O)C(=C)[C@H]12 .
(A) active

====

# Tested on: ACHN renal
# protocol: NCI-60 one-dose screen, 48 h (100 = growth as untreated, 0 = no growth, -100 = all killed)
# condition: 10 µM unless noted
# Protocol: Growth inhibition of the ACHN human tumor cell line is measured as a screen for anti-cancer activity. Cells are grown in 96 well plates and exposed to the test compound for 48 hours. Compounds are tested at a single concentration, which is 10^-5 M for most compounds. The reported endpoint is percent growth (GI% or GIPRCNT), where numbers from 0 - 100% represent growth inhibition, and numbers from -100% - 0 represent cell death. For example, a value of 40 represents 60% growth inhibition. […]
The panel holds about 83,000 compounds, 20% with a hit somewhere; the sample as a whole holds those more often. Active and inactive are the calls of the source. How the source made its calls: active means growth percent below 10; inactive means the rest.
Known growth of a selection of molecules

Record excerpt, results attached:
CCOC(=O)c1c(NC(=O)c2ccc(F)cc2F)sc2c1CCC(=O)C2 | 95.6% (inactive)
CCCC(=O)NC(c1cccnc1)c1ccc2c(C)ccnc2c1O (stereo unspecified) | 13.8% (inactive)
C=C(C)C(=O)O[C@H]1C[C@@]2(C)OC(=CC2=O)/C(C)=C\[C@H]2OC(=O)C(=C)[C@H]12 | -11.7% (active)
O=C(COc1ccc(/C=C2\SC(=O)NC2=O)cc1)Nc1ccc(C(=O)/C=C/c2cc3ccccc3nc2Cl)cc1 | 85.1% (inactive)
CC(=O)Nc1ccc(NC(=O)Nc2cccc(-c3nc(-c4ccc(NC(=O)c5cccs5)cc4Cl)no3)c2)cc1C(F)(F)F | 3.84% (active)
O=C1c2c(c3c4cccnc4[nH]c3c3ccc4ccccc4c23)C(=O)N1CCN1CCCCC1 | 20% (inactive)
O=C1Nc2ccc(Cl)cc2/C1=C/c1ccc(OCc2ccc(F)cc2)cc1 | 103% (inactive)
CCOC(=O)CC(=O)CSC1=NC2C(NN1)N(C)C(=O)N2C (stereo unspecified) | 82.6% (inactive)

(Q) Any idea what growth came out for CS(=O)(=O)c1nccc(-c2c(-c3ccc(F)c(OCCc4ccc(F)cc4)c3)nc3sccn23)n1 on ACHN renal?
(A) 45.2% (inactive)

(Q) Next molecule up: NS(=O)(=O)Oc1ccc2nc(Nc3ccc(F)c(F)c3)ccc2c1
(A) 85.8% (inactive)

(Q) Next molecule up: COc1cc2c3c(n(CCCNC4CCC4)c(=O)c2cc1OC)-c1cc2c(cc1C3=O)OCO2
(A) -89.7% (active)

(Q) Next molecule up: O=C(Nc1ccc(Cl)cc1)Nc1nc2ccc([N+](=O)[O-])cc2s1
(A) 0.28% (active)

(Q) Next molecule up: CC(=O)c1ccc(NC(=O)COc2ccc(C3SCC(=O)N3c3ccc(Br)cc3)cc2)cc1 (stereo unspecified)
(A) 97.6% (inactive)

(Q) Next molecule up: N#C/C(=C\c1ccc(Cl)cc1Cl)C(N)=O
(A) 101% (inactive)

(Q) Next molecule up: Cc1cc(-c2ccc3nc(N)sc3c2)nc2ccc3[nH]ncc3c12
(A) 40.7% (inactive)

(Q) Next molecule up: COCCOc1ccc(-c2csc(NC(C)=O)n2)cc1NS(=O)(=O)c1cccc2c(N(C)C)cccc12
(A) 72% (inactive)

(Q) Next molecule up: Nc1c(C(=O)c2ccccc2)sc2nc(-c3cnccn3)cc(-c3cccs3)c12
(A) 98.3% (inactive)

(Q) Next molecule up: CCOC(=O)C1=C(C)Nc2nnc(Nc3ccccc3)n2C1c1ccccc1 (stereo unspecified)
(A) 14.7% (inactive)

(Q) Next molecule up: Cc1ccc(Cc2cnc(NC(=O)/C(C#N)=C/c3ccc(-c4ccc(Cl)cc4)o3)s2)cc1
(A) 97.4% (inactive)

====

Known growth of a selection of molecules
# Test system: HOP-62 NSCLC
# protocol: NCI-60 one-dose screen, 48 h (100 = growth as untreated, 0 = no growth, -100 = all killed)
# condition: 10 µM unless noted
About 83,000 compounds went through this panel and 20% of them were active in at least one assay; those are over-represented in the sample as a whole.
API: value field is a number in %; no unit string.

Record excerpt, results attached:
Cc1cc(=O)n2nc(-c3c[nH]c4ccccc34)sc2n1 | 101
CNC(=O)c1cc(Oc2ccc3nc(NC(=O)c4ccc(CN5CCCN(C)CC5)c(C(F)(F)F)c4)sc3c2)ccn1 | 11.5
C/C(=C(/C)C1CC1CCN(C(=O)c1ccccn1)S(=O)(=O)c1ccc(C)cc1)C1CCCCC1 (stereo not given) | 102
CN(c1ccc(Cl)cc1)S(=O)(=O)c1ccc(-c2cnc(C3CC3)o2)cc1 | 45.6

Alright, here's another molecule for you.
(Q) Look at this molecule and give its reported growth. CCOC(=O)/C(F)=C/C1CC1CCc1cccc(C(F)(F)F)c1 (stereo not given)
(A) 98.3
